Answer each item with its documented mean motility score.
Tested on: Trichuris muris adult worms
assay: mean motility score (Paragon pixel variance) of adult worms (arbitrary units); higher = more motile worms, i.e. less anthelmintic effect; extreme values may be limits of the assay
measurement.conditions: 100 µM; 24 h
Format: numeric value only, no unit, no commentary.

For the molecule shown here, C=CCN1CC[C@]23c4c5ccc(O)c4O[C@H]2C(=O)CC[C@@]3(O)[C@H]1C5.Cl [naloxone hydrochloride] , give the reported mean motility score.
3870

Please report the recorded mean motility score for C#C[C@]1(O)CC[C@H]2[C@@H]3CCC4=CC(=O)CC[C@]4(C)[C@H]3CC[C@@]21C .
1590

GET /values?readout=mean motility score&item= CNC(=O)Oc1ccc2c(c1)[C@]1(C)CCN(C)[C@@H]1N2C
3170

Returns the measured mean motility score for the input molecule. Input: COc1ccc(C(CN(C)C)C2(O)CCCCC2)cc1.Cl (stereo not drawn) [venlafaxine hydrochloride]
1570

Name the reported mean motility score value associated with the molecule C#CCN(C)[C@H](C)Cc1ccccc1.Cl [selegiline hydrochloride]
2950

What value of mean motility score has been recorded for this entry: C[N+](C)(C)CCCCCCCCCC[N+](C)(C)C.[Br-].[Br-] [decamethonium bromide]
2280

Give the measured mean motility score of CN(C)C(=O)Oc1cccc([N+](C)(C)C)c1.COS(=O)(=O)[O-] [neostigmine methylsulfate] .
1600

So what's the measured mean motility score for this one? [O-][n+]1ccccc1S
3120

What mean motility score value was documented for this molecule, CN(C)C(=O)Oc1cc(OC(=O)N(C)C)cc(C(O)CNC(C)(C)C)c1.Cl (stereo not drawn) [bambuterol hydrochloride] ?
1410

Need mean motility score of Cl.O=C(CCCN1CCC(n2c(=O)[nH]c3ccccc32)CC1)c1ccc(F)cc1 [benperidol hydrochloride] , thanks.
3960

Please report the recorded mean motility score for COc1ccc(CCN2CCC(Nc3nc4ccccc4n3Cc3ccc(F)cc3)CC2)cc1 .
0

What value of mean motility score has been reported for the following molecule? O=C1CC[C@@]2(O)[C@H]3Cc4ccc(O)c5c4[C@@]2(CCN3CC2CC2)[C@H]1O5 [naltrexone]
3530

// returns reported mean motility score for input CCCN1C[C@H](CSC)C[C@@H]2c3cccc4[nH]cc(c34)C[C@H]21.CS(=O)(=O)O [pergolide mesylate]
3150
